System: A498 renal
Test: NCI tumour cell line growth inhibition, 48 h
Property name: GI50

Solved cases below.
> print(dat)
                      smiles.representation  property.name   result
1  COc1cccc2nc(Nc3cccc(NC(=O)c4ccc(N5CCN(C)CC5)c(C(F)(F)F)c4)c3)ccc12           GI50   1.8 µM
2  CC1(C)CC[C@]23CC[C@]4(C)[C@H](CC[C@@H]5[C@@]6(C)CCCNC(C)(C)[C@@H]6CC[C@]54C)[C@H]2[C@H]1OC3           GI50  1.68 µM
3      Cc1ccc(NC(=S)NNC(=S)Nc2ccc(C)cc2)cc1           GI50  2.96 µM
4                 NC(=O)c1c[nH]c2ncnc(N)c12           GI50  22.9 µM
5  CC(C)n1cc(-c2ccc3c(c2)N(C)CC3)c2c(NS(=O)(=O)c3ccn(C)n3)ccnc21           GI50  36.3 µM

Proceed to the following item.
Request: Recorded GI50 of "Cc1cc(S(=O)(=O)Nc2nc3ccccc3c(=O)n2Cc2ccco2)c(S)cc1Cl" , please.
Response: 33.1 µM

* * *

Field: TGI. Provide a value for each of the compounds that follow.
System: NCI/ADR-RES ovarian
Experiment: NCI tumour cell line growth inhibition, 48 h
Give bare numbers, in µM.

Solved cases below.
> print(dat)
                                   compound  result
1  CC(C)=CCC/C(C)=C/Cc1c2c(c3oc(-c4ccc(O)c(O)c4)c(O)c(=O)c3c1O)C=CC(C)(C)O2    11.7
2  COc1ccc2nc3ccc(OC)cc3c(S(=O)Cc3ccccc3)c2c1 (configuration not stated)    46.7
3  CN(C)CCC(=O)[C@@]1(O)CC[C@H]2[C@@H]3CC=C4C[C@@H](O)CC[C@]4(C)[C@H]3CC[C@@]21C    72.1

Provide each entry's TGI from the list below.
1. COC(=O)C1c2cc3c(c(O)c2CCC1(C)O)C(=O)c1c(O)cc2c(c1C3=O)OC1OC2(C)C(O)C(N(C)C)C1O (configuration not stated)
2. COc1ccc(-c2cc(=O)c3c(OC)c4ccoc4c(/C=C/C=O)c3o2)cc1

Response:
1. 3.54
2. 48

* * *

Test system: HT29 colon
Assay: NCI tumour cell line growth inhibition, 48 h; in the data active = GI50 below about 0.43 µM; inactive = the rest
Mark one answer only. Choices: active, inactive

Example cases with answers are listed next.
> print(dat)
                                   molecule  assigned.class
1  CC(=O)[O-].CC(=O)[O-].O=C([CH-]C(=O)c1ccccc1)c1ccccc1.[Nd+3].[OH3+]        inactive
2  CC1(C)CC[C@]23CC[C@]4(C)[C@H](CC[C@@H]5[C@@]6(C)CCCNC(C)(C)[C@@H]6CC[C@]54C)[C@H]2[C@H]1OC3        inactive
3  COc1cc(/C=C2\CCC/C(=C\c3cc(CN4CCCC4)c(O)c(OC)c3)C2=O)cc(CN2CCCC2)c1O          active

Request: What did the test return for "COc1cccc2nc(Nc3cccc(NC(=O)c4ccc(N5CCN(C)CC5)c(C(F)(F)F)c4)c3)ccc12" ?
Response: inactive

Request: Repeat with "COc1ccc(-c2cc(=O)c3c(OC)c4ccoc4c(/C=C/C=O)c3o2)cc1"
Response: inactive

Request: Repeat with COc1ccc(C2=C(c3ccccc3)C(=O)N3CCCC3C2)cc1 (stereo not drawn)
Response: active

Request: Repeat with C=C(C(=O)c1ccccc1)C(NC(C)(C)C)c1ccccc1 (stereo not drawn)
Response: inactive

Request: Repeat with COc1cc(/C=C2\CC3C4CCC5=CC(=O)CC[C@]5(C)C4CC[C@]3(C)C2=O)ccc1OCCN1CCCC1 (stereo partly drawn)
Response: inactive

* * *

Tested on: HOP-92 NSCLC
Experiment: NCI tumour cell line growth inhibition, 48 h; in the data active = GI50 below about 0.43 µM; inactive = the rest
Mark one answer only. Choices: True (active), False (inactive)

Example cases with answers are listed next.
> print(dat)
                                   molecule  assigned.class
1  CC(C)C[C@H](NC(=O)[C@@H](Cc1ccccc1)n1ccc(Nc2ccccc2)cc1=O)B(O)O            True
2  Cc1cc(O)ccc1C1(c2ccc(O)cc2C)OC(=O)c2ccccc21           False
3            Clc1nc(Cl)c2ncn(-c3ccccc3)c2n1           False
4  COc1ccc2c(c1)OCC1c3cc(OC)c4ccccc4c3OC21 (stereo not given)           False

Now look at this one.
Request: What did the test return for "CSC1=CC(=O)c2ccccc2C1=O" ?
Response: False

* * *

Test system: LOX IMVI melanoma
Assay: NCI tumour cell line growth inhibition, 48 h
Class criterion met: TGI at least 20 µM. Class criterion not met: TGI below 20 µM.

Molecule	Assigned class
CCOC(=O)/C=C(/C(=O)OCC)n1ccc(=O)n(Cc2cn(CCCCOC(C)=O)nn2)c1=O	criterion met
CC(C)c1cnc(-c2cc(Cl)ccc2F)cc1Nc1ccncc1C(=O)NC(CO)CO	criterion met
O=C(Nc1ccccc1)OCCN=c1c2ccccc2ccc2ccccc12	criterion met
CCn1c2ccccc2c2ccc(C3C4C(=O)N(c5cccc6ccccc56)C(=O)C4ON3C(C(N)=O)c3ccccc3)cc21 (stereo not given)	criterion met
Cc1c(-c2coc(-c3ccc([N+](=O)[O-])cc3)n2)c(=O)n(-c2ccccc2)n1C	criterion met

Request: Tell me whether TGI is at least 20 µM here: CC(C)(C)N1CC1CNC(=O)C(=O)NCC1CN1C(C)(C)C (stereo not given)
Response: criterion met

Request: Repeat with CC(=O)NC1C(OCc2ccccc2)OC(CO)C(O)C1OCC(=O)NC(C(=O)NC(CCC(=O)NCCCCCC(=O)Nc1ccc2c(c1)CN1C(=O)c3ccccc3C1=N2)C(N)=O)C(C)C (stereo not given)
Response: criterion met

Request: Repeat with "CCOC(=O)c1sc2nc(SC)nc3c2c1NC(=O)CN3c1ccc(F)cc1"
Response: criterion met

Request: Repeat with "Cc1[nH]c(=O)n2c(C)nnc2c1C(=O)O"
Response: criterion met

Request: Repeat with O=C(O)C12C3CCC(C3)C1(C(=O)O)C1CCC2C1 (stereo not given)
Response: criterion met

Request: Repeat with COc1ccccc1/C=C1\CCC(Cc2ccccc2)(CN(C)C)C1=O (stereo not given)
Response: criterion met

Request: Repeat with "CC1(C)N=C(C(N)=O)c2ncn(Cc3ccccc3)c2N1"
Response: criterion met

Request: Repeat with "CS(=O)(=O)Nc1cc(-c2ccc3ncc(C#N)c(Nc4ccc(F)c(Cl)c4)c3c2)cnc1Cl"
Response: criterion not met

Request: Repeat with "CCOC(=O)C#Cc1cccc(C#CC(=O)OCC)c1"
Response: criterion not met

Request: Repeat with "CCN1CCN(Cc2ccc(Nc3ncc(F)c(-c4cc(F)c5nc(C)n(C(C)C)c5c4)n3)nc2)CC1"
Response: criterion not met

Request: Repeat with CC1(C)CC(=O)c2c(-c3ccc(Cl)cc3)c(C#N)c(=S)n(C3OC(CO)C(O)C(O)C3O)c2C1 (stereo not given)
Response: criterion met

Request: Repeat with CN1N=C(c2ccncc2)OC1c1cccc(F)c1 (stereo not given)
Response: criterion met

Request: Repeat with "O=S(=O)(O)c1c(Cl)c(Cl)c(O)c2ncccc12"
Response: criterion not met

Request: Repeat with "CCOC(=O)CCc1c(C)c2c(OC)cc(OC)cc2oc1=O"
Response: criterion met

* * *

System: A549 NSCLC
Experiment: NCI tumour cell line growth inhibition, 48 h; in the data active = GI50 below about 0.43 µM; inactive = the rest
Mark one answer only. Choices: Yes (active), No (inactive)

Example cases with answers are listed next.
> print(dat)
                                   molecule         tgt  assigned.class
1  CCOC(=O)c1c(-c2ccccc2)n2c(=O)cc(C)c3c(O)c(O)cc1c32  A549 NSCLC              No
2  COc1ccc(-c2cc(=O)c3c(OC)c4ccoc4c(/C=C/C=O)c3o2)cc1  A549 NSCLC              No
3  C=C(C)[C@@H]1CC[C@]2(C(=O)O)CC[C@]3(C)[C@H](CC[C@@H]4[C@@]5(C)C/C(=C/c6ccco6)C(=O)C(C)(C)[C@@H]5CC[C@]43C)[C@@H]12  A549 NSCLC              No

Request: What did the test return for Nc1nc2ccc(CNc3ccc(C(=O)NC(CC(=O)O)C(=O)O)cc3)cc2c(=O)[nH]1 (centres undefined) ?
Response: No

Request: Repeat with "CS(=O)(=O)N1CCC(Nc2ncc(C(=O)c3c(F)cccc3F)c(N)n2)CC1"
Response: No

Request: Repeat with "O=C(Cc1cc(O)ccc1O)NO"
Response: No

* * *

Field: TGI. Provide a value for each of the compounds that follow.
Tested on: MCF7 breast
Test: NCI tumour cell line growth inhibition, 48 h

Solved cases below.
> print(dat)
                                   compound    result
1  CCC1=CC(OCc2ccccc2)C(CCN(Cc2ccccc2)C(=O)OCc2ccccc2)C1 (stereo not given)     35 µM
2           COc1ccc(N=Nc2ccc(O)c(=O)cc2)cc1  > 100 µM
3  CCn1c2ccccc2c2ccc(C3C4C(=O)N(c5cccc6ccccc56)C(=O)C4ON3C(C(N)=O)c3ccccc3)cc21 (stereo not given)   > 25 µM
4  COc1ccc2c(c1)OCC1c3cc(OC)c4ccccc4c3OC21 (stereo not given)  > 100 µM
5  COc1ccc2nc3cccc([N+](=O)[O-])c3c(NCCC(=O)O)c2c1   > 10 µM

Provide each entry's TGI from the list below.
1. COc1cc(/C=C2\CCC/C(=C\c3cc(CN4CCCC4)c(O)c(OC)c3)C2=O)cc(CN2CCCC2)c1O
2. CSC12c3cc(C)n(-c4ccc(I)cc4)c3CC(C)(C)CN1C(=O)C2Oc1ccccc1 (stereo not given)
3. CCCCCN1C(=O)C(Cc2ccccc2)N=C(c2ccc(O)cc2)c2cc(Cl)ccc21 (stereo not given)

Response:
1. 23.6 µM
2. > 100 µM
3. 24.8 µM

Provide each entry's TGI from the list below.
1. O=S(=O)(NCCNc1nccc(-c2c(-c3ccc(F)cc3)nc3sccn23)n1)c1ccc(O)cc1
2. CC1=CC2(C)C=C[C@@H]1C(=O)[C@@]1(C)CC[C@@](O)(C(C)C)[C@H]1CC2
3. Nc1c(F)c(F)c2c(c1F)N(CCCCCl)c1ccccc1S2
4. CCOC(=O)C1=C(C)NC2SC(=O)/C(=C\c3cccc(Cl)c3)N2C1c1ccccc1 (stereo not given)
5. COc1ccc(/C(C)=C2\CCCN(Cc3ccccc3)C2)cc1

Response:
1. 14.4 µM
2. 76 µM
3. > 100 µM
4. > 100 µM
5. 37.8 µM

Provide each entry's TGI from the list below.
1. O=P1(Oc2ccc(Cl)cc2Cl)Oc2cc3ccccc3cc2O1
2. Cc1ccc2ncnc(N(C)C3CCCCC3)c2c1
3. Cc1cn(C2CC(O)C(Cn3nncc3Cn3cnc4c(N)ncnc43)O2)c(=O)[nH]c1=O (stereo not given)
4. Cc1csc2nc(-c3cc([N+](=O)[O-])c(Cl)cc3Cl)c(/C=N/N=C(N)N)n12
5. COc1ccc(C[C@H]2COC(=O)[C@@H]2Cc2ccc(Br)cc2)cc1OC
6. COc1ccc(OC)c(C2=C(c3cn(C)c4ccccc34)C(=O)NC2=O)c1
7. COC(=O)c1cc(/C=C/C(=O)Cc2ccccc2)cn1S(=O)(=O)c1ccccc1

Response:
> 74.4 µM
> 100 µM
> 100 µM
37.5 µM
> 65.4 µM
> 25 µM
> 100 µM
